# Test system: LG0703-F948-PDC complex spheroid viability;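 note: spheroids exposed to agents for 7 days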
# assay text: Anticancer human tumor LG0703-F948-PDC patient-derived lung adenocarcinoma cell line growth inhibition [RAS]; active = viability on the fitted dose curve at most 10% of control; inactive = the rest
# measurement context: second compound 0.0949 µM; first compound 0.316 µM
Classes used: TRUE (active), FALSE (inactive)

{"molecule": "C[C@@H](NC(=O)c1ncnc(N)c1Cl)c1ncc(C(=O)Nc2cc(C(F)(F)F)c(Cl)cn2)s1 + CCn1c(-c2cccnc2C(C)OC)c2c3cc(ccc31)N1CCOC(CC(NC(=O)C(C(C)C)N(C)C(=O)C3(F)CCN(C(=O)C#CC(C)(C)N(C)C)CC3)C(=O)N3CCCC(N3)C(=O)OCC(C)(C)C2)C1", "experimental target": "LG0703-F948-PDC complex spheroid viability", "qualitative label": "FALSE"}
{"molecule": "Cc1nc(N2CCC3(CC2)COC(C)C3N)c(CO)nc1Sc1ccnc(N)c1Cl (stereo not given) + CCn1c(-c2cc(N3CCN(C)CC3)cnc2C(C)OC)c2c3cc(ccc31)-c1csc(n1)CC(NC(=O)C1CC1C)C(=O)N1CCCC(N1)C(=O)OCC(C)(C)C2", "experimental target": "LG0703-F948-PDC complex spheroid viability", "qualitative label": "TRUE"}
{"molecule": "CCC(CC)c1cc(NC2CCC(N)C2)n2nccc2n1 (stereo not given) + CCn1c(-c2cccnc2C(C)OC)c2c3cc(ccc31)N1CCOC(CC(NC(=O)C(C(C)C)N(C)C(=O)C3(F)CCN(C(=O)C#CC(C)(C)N(C)C)CC3)C(=O)N3CCCC(N3)C(=O)OCC(C)(C)C2)C1", "experimental target": "LG0703-F948-PDC complex spheroid viability", "qualitative label": "FALSE"}
{"molecule": "CC(=O)OC12COC1CC(O)C1(C)C(=O)C(O)C3=C(C)C(OC(=O)C(O)C(NC(=O)OC(C)(C)C)c4ccccc4)CC(O)(C(OC(=O)c4ccccc4)C21)C3(C)C (stereo not given) + CCn1c(-c2cc(N3CCN(C)CC3)cnc2C(C)OC)c2c3cc(ccc31)-c1csc(n1)CC(NC(=O)C1CC1C)C(=O)N1CCCC(N1)C(=O)OCC(C)(C)C2", "experimental target": "LG0703-F948-PDC complex spheroid viability", "qualitative label": "TRUE"}
{"molecule": "Cc1nc(N2CCC3(CC2)COC(C)C3N)c(CO)nc1Sc1ccnc(N)c1Cl (stereo not given) + CCn1c(-c2cccnc2C(C)OC)c2c3cc(ccc31)N1CCOC(CC(NC(=O)C(C(C)C)N(C)C(=O)C3(F)CCN(C(=O)C#CC(C)(C)N(C)C)CC3)C(=O)N3CCCC(N3)C(=O)OCC(C)(C)C2)C1", "experimental target": "LG0703-F948-PDC complex spheroid viability", "qualitative label": "FALSE"}
{"molecule": "CC(C)NCC(C(=O)N1CCN(c2ncnc3c2C(C)CC3O)CC1)c1ccc(Cl)cc1 (stereo not given) + CCn1c(-c2cccnc2C(C)OC)c2c3cc(ccc31)N1CCOC(CC(NC(=O)C(C(C)C)N(C)C(=O)C3(F)CCN(C(=O)C#CC(C)(C)N(C)C)CC3)C(=O)N3CCCC(N3)C(=O)OCC(C)(C)C2)C1", "experimental target": "LG0703-F948-PDC complex spheroid viability", "qualitative label": "FALSE"}
{"molecule": "Nc1ccn(C2OC(CO)C(O)C2(F)F)c(=O)n1 (stereo not given) + CCn1c(-c2cc(N3CCN(C)CC3)cnc2C(C)OC)c2c3cc(ccc31)-c1csc(n1)CC(NC(=O)C1CC1C)C(=O)N1CCCC(N1)C(=O)OCC(C)(C)C2", "experimental target": "LG0703-F948-PDC complex spheroid viability", "qualitative label": "TRUE"}
{"molecule": "CC1(O)CCCC1n1c(=O)c(C(F)F)cc2cnc(NC3CCN(S(C)(=O)=O)CC3)nc21 (stereo not given) + CCn1c(-c2cccnc2C(C)OC)c2c3cc(ccc31)N1CCOC(CC(NC(=O)C(C(C)C)N(C)C(=O)C3(F)CCN(C(=O)C#CC(C)(C)N(C)C)CC3)C(=O)N3CCCC(N3)C(=O)OCC(C)(C)C2)C1", "experimental target": "LG0703-F948-PDC complex spheroid viability", "qualitative label": "FALSE"}
{"molecule": "C=CC(=O)Nc1cc(Nc2nccc(-c3cn(C)c4ccccc34)n2)c(OC)cc1N(C)CCN(C)C + CCn1c(-c2cc(N3CCN(C)CC3)cnc2C(C)OC)c2c3cc(ccc31)-c1csc(n1)CC(NC(=O)C1CC1C)C(=O)N1CCCC(N1)C(=O)OCC(C)(C)C2", "experimental target": "LG0703-F948-PDC complex spheroid viability", "qualitative label": "TRUE"}
{"molecule": "C=CC(=O)N1CCN(c2nc(OCC3CCCN3C)nc3c(F)c(-c4nc(N)cc(C)c4C(F)(F)F)c(Cl)cc23)C(C)C1 (stereo not given) + CCn1c(-c2cc(N3CCN(C)CC3)cnc2C(C)OC)c2c3cc(ccc31)-c1csc(n1)CC(NC(=O)C1CC1C)C(=O)N1CCCC(N1)C(=O)OCC(C)(C)C2", "experimental target": "LG0703-F948-PDC complex spheroid viability", "qualitative label": "FALSE"}
